Tested on: PYK2
Construct: gene PTK2B
MEASUREMENT_PARAMETERS: concentration: 1 μM, replicates: in singlicate; n = 1;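 note: KINOMEscan kinase panel screen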

[
  {
    "COMPOUND": "COc1ccc(C)c(Nc2ccnc(Nc3ccc(-c4cnc[nH]4)cc3)n2)c1.Cl",
    "%Inh": "5%"
  },
  {
    "COMPOUND": "O=C(Nc1n[nH]c2nc(-c3ccccc3)ccc12)C1CC1",
    "%Inh": "0%"
  },
  {
    "COMPOUND": "CC(C)NCC(Cc1ccccc1)NC(=O)c1cc(Br)c(-c2ccnc3[nH]ccc23)s1.Cl.Cl (stereo not drawn)",
    "%Inh": "17%"
  },
  {
    "COMPOUND": "O=C(Nc1n[nH]c2nc(-c3cccc(O)c3)ccc12)C1CC1",
    "%Inh": "11%"
  },
  {
    "COMPOUND": "CN(c1ccc(F)c(NC(=O)c2cccc(OC(C)(C)C#N)c2Cl)c1)c1ccc2nc(NC(=O)C3CC3)sc2n1",
    "%Inh": "3%"
  },
  {
    "COMPOUND": "Cc1ccc(NC(=O)c2ccnc(N3CCCCC3)c2)cc1-c1ccc(C(=O)NCC2CC2)cc1",
    "%Inh": "5%"
  }
]

* * *

Test system: RPS6KA4(Kin.Dom.2-C-terminal)
MEASUREMENT_PARAMETERS: concentration: 1 μM, replicates: in singlicate; n = 1
// reported %Inh for each item listed
MEASUREMENT_NAME: %Inh (%)

[
  {
    "COMPOUND": "Cl.Cl.NCC(NC(=O)c1cc(-c2cccnc2)c(-c2ccnc3[nH]ccc23)s1)c1ccccc1 (stereo not drawn)",
    "MEASUREMENT_NAME": "%Inh",
    "UNIT_INFO": "%",
    "EXPERIMENTAL_VALUE": 0
  },
  {
    "COMPOUND": "CCNC(=O)/C=C/c1n[nH]c2cc(Sc3ccccc3C(=O)NC)ccc12",
    "MEASUREMENT_NAME": "%Inh",
    "UNIT_INFO": "%",
    "EXPERIMENTAL_VALUE": 21
  },
  {
    "COMPOUND": "Cc1nn2c(=O)cc(N3CCO[C@H](C)C3)nc2n1Cc1cccc(Cl)c1Cl",
    "MEASUREMENT_NAME": "%Inh",
    "UNIT_INFO": "%",
    "EXPERIMENTAL_VALUE": 39
  }
]

* * *

Test system: LATS1
MEASUREMENT_PARAMETERS: concentration: 1 μM, replicates: in singlicate; n = 1
MEASUREMENT_NAME: %Inh (%)

[
  {
    "RECORD_SMILES": "CC(C)c1nc(-c2ccc(F)c(NS(=O)(=O)c3c(F)cccc3F)c2)c(-c2ccnc(Nc3ccc(N4CCOCC4)nc3)n2)s1",
    "MEASUREMENT_NAME": "%Inh",
    "EXPERIMENTAL_VALUE": 0
  },
  {
    "RECORD_SMILES": "CC(C)(C)c1ccc(C(=O)Nc2cn3cc(-n4ccnc4)ccc3n2)cc1",
    "MEASUREMENT_NAME": "%Inh",
    "EXPERIMENTAL_VALUE": 0
  },
  {
    "RECORD_SMILES": "CN(c1ccc2c(c1)nc(NCc1ccccc1)n2C)c1ccnc(Nc2ccc(CS(C)(=O)=O)cc2)n1.Cl",
    "MEASUREMENT_NAME": "%Inh",
    "EXPERIMENTAL_VALUE": 0
  },
  {
    "RECORD_SMILES": "CN1CCN(Cc2ccc(NC(=O)Nc3ccc(N(C)c4ccnc(Nc5ccc(CS(C)(=O)=O)cc5)n4)cc3)cc2)CC1.Cl",
    "MEASUREMENT_NAME": "%Inh",
    "EXPERIMENTAL_VALUE": 20
  },
  {
    "RECORD_SMILES": "CS(=O)(=O)c1cccc(CNc2nc(Nc3ccc4c(c3)CCC(=O)N4)ncc2C(F)(F)F)c1",
    "MEASUREMENT_NAME": "%Inh",
    "EXPERIMENTAL_VALUE": 0
  },
  {
    "RECORD_SMILES": "COc1ccc(NC(=O)c2ccoc2)cc1-c1ccc(C(=O)NCC2CC2)cc1",
    "MEASUREMENT_NAME": "%Inh",
    "EXPERIMENTAL_VALUE": 12
  },
  {
    "RECORD_SMILES": "COc1ccc(C2=C(Nc3cccc(O)c3)C(=O)NC2=O)cc1",
    "MEASUREMENT_NAME": "%Inh",
    "EXPERIMENTAL_VALUE": 0
  },
  {
    "RECORD_SMILES": "Fc1cc(Cl)ccc1Nc1ccnc2cc(-c3ccc(CN4CCOCC4)o3)ccc12",
    "MEASUREMENT_NAME": "%Inh",
    "EXPERIMENTAL_VALUE": 0
  },
  {
    "RECORD_SMILES": "Fc1cc(Cl)ccc1Nc1ccnc2cc(-c3ccc(CN4CCSCC4)o3)ccc12",
    "MEASUREMENT_NAME": "%Inh",
    "EXPERIMENTAL_VALUE": 73
  },
  {
    "RECORD_SMILES": "O=C(O)C(F)(F)F.O=c1[nH]ccc2nc(N[C@@H]3CCNC3)nc(Nc3cc(Cl)cc(Cl)c3)c12",
    "MEASUREMENT_NAME": "%Inh",
    "EXPERIMENTAL_VALUE": 42
  },
  {
    "RECORD_SMILES": "N#Cc1cnc2cc(-c3cnc(CNCCN4CCOCC4)s3)ccc2c1Nc1ccc(Oc2ccccc2)cc1",
    "MEASUREMENT_NAME": "%Inh",
    "EXPERIMENTAL_VALUE": 0
  },
  {
    "RECORD_SMILES": "Cc1ccc(O)cc1Nc1ccnc2cc(-c3ccc(CN4CCCCC4)o3)ccc12",
    "MEASUREMENT_NAME": "%Inh",
    "EXPERIMENTAL_VALUE": 0
  },
  {
    "RECORD_SMILES": "CCn1c(-c2nonc2N)nc2c(-c3ccccc3)ncc(OCCCN)c21.O=C(O)C(F)(F)F.O=C(O)C(F)(F)F",
    "MEASUREMENT_NAME": "%Inh",
    "EXPERIMENTAL_VALUE": 100
  },
  {
    "RECORD_SMILES": "COc1ccc(C)c(Nc2ccnc(Nc3ccc(-c4cnc[nH]4)cc3)n2)c1.Cl",
    "MEASUREMENT_NAME": "%Inh",
    "EXPERIMENTAL_VALUE": 12
  }
]

* * *

// reported %Inh for each item listed
Test system: TIE2
Construct: gene TEK
MEASUREMENT_PARAMETERS: concentration: 1 μM, replicates: in singlicate; n = 1

[
  {
    "COMPOUND": "Cc1ccc(NC(=O)c2ccc(Cl)c(Cl)c2)cc1-c1ccc(C(=O)Nc2ccncc2)cc1",
    "%Inh (%)": 0
  },
  {
    "COMPOUND": "COc1cc(Nc2nccc(N3CCC(NC(=O)Nc4ccc5c(c4)OCO5)C3)n2)cc(OC)c1OC (stereo not drawn)",
    "%Inh (%)": 0
  },
  {
    "COMPOUND": "COc1ccc(C2=C(Nc3cccc(O)c3)C(=O)NC2=O)cc1",
    "%Inh (%)": 0
  }
]

* * *

Test system: MAST1
MEASUREMENT_PARAMETERS: concentration: 1 μM, replicates: in singlicate; n = 1
// reported %Inh for each item listed

[
  {
    "RECORD_SMILES": "CN(c1ccc(NC(=O)N2CCN(CCCN3CCOCC3)CC2)cc1)c1ccnc(Nc2ccc(CS(C)(=O)=O)cc2)n1.Cl",
    "%Inh [%]": 0
  },
  {
    "RECORD_SMILES": "O=C(Nc1c(F)cccc1F)c1cc(C(=O)c2ccccc2F)c[nH]1",
    "%Inh [%]": 0
  },
  {
    "RECORD_SMILES": "CC(=O)Nc1cn2nc(Oc3cccc(NC(=O)c4cccc(C(F)(F)F)c4)c3)ccc2n1",
    "%Inh [%]": 8
  },
  {
    "RECORD_SMILES": "Cc1ccc(O)cc1Nc1ccnc2ccc(C(C)(C)C)cc12",
    "%Inh [%]": 69
  },
  {
    "RECORD_SMILES": "CN(c1ccc2c(c1)nc(NCc1ccccc1)n2C)c1ccnc(Nc2ccc(CS(C)(=O)=O)cc2)n1.Cl",
    "%Inh [%]": 31
  },
  {
    "RECORD_SMILES": "N#Cc1cnc2cc(-c3cnc(CNCCN4CCOCC4)s3)ccc2c1Nc1ccc(Oc2ccccc2)cc1",
    "%Inh [%]": 0
  }
]
